- tgt: MMP-9 (Homo sapiens, UniProt P14780)
- Sequence (P14780 107-707 limits assumed): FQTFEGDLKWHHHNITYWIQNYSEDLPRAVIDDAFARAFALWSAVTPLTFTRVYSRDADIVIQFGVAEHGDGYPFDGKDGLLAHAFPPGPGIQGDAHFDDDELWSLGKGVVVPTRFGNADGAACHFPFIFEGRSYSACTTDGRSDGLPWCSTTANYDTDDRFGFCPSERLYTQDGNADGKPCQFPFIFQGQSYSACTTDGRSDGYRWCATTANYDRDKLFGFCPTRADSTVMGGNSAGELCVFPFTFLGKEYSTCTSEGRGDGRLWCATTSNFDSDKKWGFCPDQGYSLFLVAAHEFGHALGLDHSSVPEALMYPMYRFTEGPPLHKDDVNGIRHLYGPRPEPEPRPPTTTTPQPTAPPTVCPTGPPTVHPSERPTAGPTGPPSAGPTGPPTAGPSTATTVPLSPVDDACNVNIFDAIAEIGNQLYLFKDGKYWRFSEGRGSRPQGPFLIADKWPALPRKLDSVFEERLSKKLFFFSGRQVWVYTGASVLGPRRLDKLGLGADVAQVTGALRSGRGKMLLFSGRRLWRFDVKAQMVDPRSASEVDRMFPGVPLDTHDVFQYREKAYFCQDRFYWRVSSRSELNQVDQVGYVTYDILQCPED
- assay-method-text: Test 4 MMP-9 inhibiting activity test (biotin labeled gelatin)
- condition-context: activated human MMP-9, biotin labeled gelatin; read-out: MMP-9 inhibition activity value
- Experimental: Test 4 MMP-9 Inhibiting Activity Test […] A mixture of DMSO solution (2 μl) containing definite concentration of the compound, biotin labeled gelatin (188 μl) and activated MMP-9 solution (10 μl) was put on a 96 well-assay plate (protein nonabsorbance type), well agitated, and incubated at 37° C. for 1 hour. […] Then, ABTS solution (200 μl) was added thereto and after standing at room temperature for 40 minutes, furuorescence intensity was measured at 405 nm and IC50 was calculated. […]
pIC50: −log10 of the molar value.
Short version: pIC50 at least 6 is t, less is f.

Example cases with answers are listed next.
CCOC(=O)CCN(C1(C(=O)NO)CCOCC1)S(=O)(=O)c1ccc(Oc2ccc(S(C)(=O)=O)cc2)cc1 :: f
CC(C)CN(C1(C(=O)NO)CCCC1)S(=O)(=O)c1ccc(Oc2ccc(S(C)(=O)=O)cc2)cc1 :: t
CC(C)CN(C1(C(=O)NO)CCC1)S(=O)(=O)c1ccc(Oc2ccc(S(C)(=O)=O)cc2)cc1 :: t
COCCCN(CC(=O)NO)S(=O)(=O)c1ccc(Oc2ccc(S(C)(=O)=O)cc2)cc1 :: t

QUERY: Quick check: does CS(=O)(=O)c1ccc(Oc2ccc(CC3Sc4ccc(C(=O)O)cc4N(CC(=O)NO)C3=O)cc2)cc1 (stereo not shown) have pIC50 greater than or equal to 6?
RESULT: t

QUERY: Is pIC50 for `CS(=O)(=O)c1ccc(Oc2ccc(S(=O)(=O)N(Cc3ccccc3)C3(C(=O)NO)CCOCC3)cc2)cc1` at or above 6?
RESULT: t
